Kindly supply the reported GI50 values for the records listed here.
Test system: A549 (lung)
Test: cell growth inhibition, dictyostatin analogs, A549
Format: cell-based
Settings: Homo sapiens, A549, read-out: GI50 A549
Remember to follow the number with its unit.

These solved cases illustrate the format of a correct answer.
C=C/C=C\[C@H](C)[C@@H]1OC(=O)/C=C\C=C\[C@@H](CCCCN=[N+]=[N-])[C@@H](O)C[C@H](O)/C=C\[C@H](C)[C@H](O)[C@@H](C)C[C@@H](C)CC[C@@H](O)[C@@H]1C [C(6) analog 1] : 1.1 nM
C=C/C=C\[C@H](C)[C@@H]1OC(=O)/C=C\C=C\[C@@H](C)[C@@H](O)C[C@H](O)/C=C\[C@H](C)[C@H](O)[C@@H](C)C[C@@H](C)CC[C@@H](O)[C@@H]1C [dictyostatin] : 0.3 nM
C=C/C=C\[C@H](C)[C@@H]1OC(=O)/C=C\C=C\[C@@H](CCCCNC(C)=O)[C@@H](O)C[C@H](O)/C=C\[C@H](C)[C@H](O)[C@@H](C)C[C@@H](C)CC[C@@H](O)[C@@H]1C [amide 27] : 22 nM

Report GI50 for C=C/C=C\[C@H](C)[C@@H]1OC(=O)/C=C\C=C\[C@@H](CCCCn2nnc3c2CC[C@@H]2[C@@H](CO)[C@@H]2CC3)[C@@H](O)C[C@H](O)/C=C\[C@H](C)[C@H](O)[C@@H](C)C[C@@H](C)CC[C@@H](O)[C@@H]1C [triazole 26] tested on A549 (lung). 25 nM
